Tested system: Microtubule-associated serine/threonine-protein kinase 3 (Homo sapiens, UniProt O60307)
Sequence (O60307 whole entry): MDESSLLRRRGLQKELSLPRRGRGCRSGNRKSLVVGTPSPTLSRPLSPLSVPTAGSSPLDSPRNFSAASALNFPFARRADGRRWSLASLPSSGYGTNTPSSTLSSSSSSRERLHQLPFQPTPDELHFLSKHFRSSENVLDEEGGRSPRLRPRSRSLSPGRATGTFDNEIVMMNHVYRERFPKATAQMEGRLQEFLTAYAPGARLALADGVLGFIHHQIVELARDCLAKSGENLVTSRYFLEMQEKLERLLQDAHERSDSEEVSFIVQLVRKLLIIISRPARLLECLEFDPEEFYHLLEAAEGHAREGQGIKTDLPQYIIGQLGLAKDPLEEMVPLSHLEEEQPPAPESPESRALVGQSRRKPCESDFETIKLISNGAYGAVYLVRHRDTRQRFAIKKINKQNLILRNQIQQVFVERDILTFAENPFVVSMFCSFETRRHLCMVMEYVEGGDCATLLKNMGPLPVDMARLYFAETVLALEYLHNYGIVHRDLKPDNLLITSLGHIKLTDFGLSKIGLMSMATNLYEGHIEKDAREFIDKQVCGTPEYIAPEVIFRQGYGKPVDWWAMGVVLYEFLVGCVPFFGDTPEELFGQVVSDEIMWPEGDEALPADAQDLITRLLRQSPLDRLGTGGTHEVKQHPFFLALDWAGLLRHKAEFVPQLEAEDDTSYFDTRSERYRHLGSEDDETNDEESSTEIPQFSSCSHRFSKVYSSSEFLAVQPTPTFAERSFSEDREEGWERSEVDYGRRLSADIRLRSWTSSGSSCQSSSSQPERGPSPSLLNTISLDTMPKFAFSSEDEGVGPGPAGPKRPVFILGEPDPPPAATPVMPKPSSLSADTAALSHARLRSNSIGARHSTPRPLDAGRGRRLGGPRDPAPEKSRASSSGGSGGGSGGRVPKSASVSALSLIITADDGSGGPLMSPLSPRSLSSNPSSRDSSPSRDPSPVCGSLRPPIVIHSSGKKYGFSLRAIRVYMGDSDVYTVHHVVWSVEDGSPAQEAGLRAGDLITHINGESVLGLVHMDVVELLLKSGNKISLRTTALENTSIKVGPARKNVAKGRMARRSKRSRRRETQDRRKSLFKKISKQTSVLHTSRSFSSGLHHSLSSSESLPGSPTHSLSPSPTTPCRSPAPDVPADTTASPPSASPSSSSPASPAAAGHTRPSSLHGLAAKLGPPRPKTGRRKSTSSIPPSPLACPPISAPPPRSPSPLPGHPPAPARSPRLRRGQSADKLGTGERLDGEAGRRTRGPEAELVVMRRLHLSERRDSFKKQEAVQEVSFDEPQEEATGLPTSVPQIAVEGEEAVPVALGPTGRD
Property name: IC50 (nM)
Answers are plain numbers, in nM.

I have 2 molecules here; please give me IC50 for each one.
1. CN1C(=O)[C@@H](N2CCc3cn(Cc4ccccc4)nc3C2=O)COc2ccccc21
2. CN1C(=O)[C@@H](N2CCc3cn(CC4CCS(=O)(=O)CC4)nc3C2=O)COc2ccccc21 [TP-030n]

Output:
1000
1000

---

For each of the compounds below, state its IC50.
Tested system: Cyclin-G-associated kinase (Homo sapiens)
Sequence (O14976 whole entry): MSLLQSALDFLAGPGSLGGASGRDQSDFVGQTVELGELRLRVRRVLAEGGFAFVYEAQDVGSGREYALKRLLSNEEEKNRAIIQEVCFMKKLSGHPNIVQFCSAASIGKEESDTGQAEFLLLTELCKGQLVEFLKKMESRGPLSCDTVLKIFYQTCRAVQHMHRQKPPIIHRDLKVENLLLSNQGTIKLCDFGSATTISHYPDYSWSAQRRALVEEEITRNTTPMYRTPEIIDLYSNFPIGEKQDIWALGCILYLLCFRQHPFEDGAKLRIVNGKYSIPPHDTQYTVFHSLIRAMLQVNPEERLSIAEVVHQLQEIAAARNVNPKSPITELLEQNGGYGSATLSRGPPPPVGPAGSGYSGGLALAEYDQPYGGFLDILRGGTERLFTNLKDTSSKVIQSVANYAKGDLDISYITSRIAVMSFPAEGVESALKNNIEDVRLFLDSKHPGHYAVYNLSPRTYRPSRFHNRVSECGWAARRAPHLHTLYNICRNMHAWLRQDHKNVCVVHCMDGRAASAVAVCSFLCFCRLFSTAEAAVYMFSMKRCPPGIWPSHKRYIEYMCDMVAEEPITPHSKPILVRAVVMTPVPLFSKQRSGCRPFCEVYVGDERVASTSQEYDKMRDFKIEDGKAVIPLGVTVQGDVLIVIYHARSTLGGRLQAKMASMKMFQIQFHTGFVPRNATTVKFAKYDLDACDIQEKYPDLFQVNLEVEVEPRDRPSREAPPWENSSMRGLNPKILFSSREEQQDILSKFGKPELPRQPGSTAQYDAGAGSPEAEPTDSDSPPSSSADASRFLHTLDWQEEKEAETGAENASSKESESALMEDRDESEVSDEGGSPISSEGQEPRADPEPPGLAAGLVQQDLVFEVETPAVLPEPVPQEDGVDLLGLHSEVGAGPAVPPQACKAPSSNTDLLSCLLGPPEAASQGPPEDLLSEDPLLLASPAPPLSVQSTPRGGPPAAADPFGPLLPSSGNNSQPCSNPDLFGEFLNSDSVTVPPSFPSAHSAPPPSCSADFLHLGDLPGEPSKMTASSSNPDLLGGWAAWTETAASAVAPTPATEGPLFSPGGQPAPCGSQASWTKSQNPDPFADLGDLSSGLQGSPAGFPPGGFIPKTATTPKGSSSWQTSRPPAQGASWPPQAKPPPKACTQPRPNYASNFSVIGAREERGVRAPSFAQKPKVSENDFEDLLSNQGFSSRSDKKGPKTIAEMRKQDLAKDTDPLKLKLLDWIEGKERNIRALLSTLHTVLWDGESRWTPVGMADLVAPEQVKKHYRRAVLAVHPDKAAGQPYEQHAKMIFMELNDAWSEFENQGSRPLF
Answers are plain numbers, in nM.

CN1C(=O)[C@@H](N2CCc3cn(CC4CCS(=O)(=O)CC4)nc3C2=O)COc2ccccc21 [TP-030n]; 1000

Entry CN1C(=O)[C@@H](N2CCc3cn(Cc4ccccc4)nc3C2=O)COc2ccccc21 ; IC50 = 1000
